Data provenance is ChEMBL document CHEMBL5150059.

# Procedure summary: Effect on non-miR-122 pathway in human Huh-7 cells harboring psi-check empty vector assessed as increase in luminescence at 10 uM after 48 hrs by dual luciferase assay relative to control
# Assay type: functional
Reported endpoint: Activity (%)
Numeric answer only, unit % assumed.

These solved cases illustrate the format of a correct answer.
# Cpd smiles, Activity [%]
rows = [
    ("COc1cc(C)c(C(C)C)cc1S(=O)(=O)N(C)c1cc(C)ccc1C", 245),
    ("COc1cc(C)c(C(C)C)cc1S(=O)(=O)N(C)c1ccc(C)cc1", 218),
]

Now look at this entry.
GET /value?item= COc1cc(C)c(C(C)C)cc1S(=O)(=O)N(C)c1cccc(C)c1C &field=Activity returns 225

---

# Procedure summary: Effect on non-miR-122 pathway in human Huh-7 cells harboring psi-check empty vector assessed as increase in luminescence at 10 uM after 48 hrs by dual luciferase assay relative to control
# Assay type: functional
# Activity listing for each entry below
# number only, unit % dropped from output

# Cpd smiles, Val
data = [
    ("COc1cc(C)c(C(C)C)cc1S(=O)(=O)N(C)c1cccc(C)n1", 117),
]

The reported value for COc1cc(C)c(C(C)C)cc1S(=O)(=O)N(C)c1ccccn1 in terms of Activity is 88

Just so you know, measured Activity for COc1cc(C)c(C(C)C)cc1S(=O)(=O)N(C)c1cccc(C)c1 came out at 103

Entry under test: COc1cc(C)c(C(C)C)cc1S(=O)(=O)N(C)c1ncccc1C . Its Activity was 87

Per the records, this molecule ( COc1cc(C)c(C(C)C)cc1S(=O)(=O)N(C)c1ccccc1C ) has Activity equal to 90

The molecule identified as COc1cc(C)c(C(C)C)cc1S(=O)(=O)n1cnc(C)c1 registered its Activity at 127

---

The entries below are paired with their reported Activity.
# Test system: microRNA 122
# Procedure summary: Inhibition of miR-122 in human Huh-7 cells expressing renilla luciferase gene assessed as relative luciferase unit after 48 hrs by dual luciferase assay relative to control
# Assay type: cell-based
# Set-up: concentration or dose not given beside the values
Provide the reading as a plain figure in %.

Known results for compounds:
# Cpd smiles, Measurement target, Val
rows = [
    ("COc1cc(C)ccc1S(=O)(=O)n1cnc(C)c1", "microRNA 122", 24),
    ("COc1cc(C)c(C(C)C)cc1S(=O)(=O)n1ccnc1", "microRNA 122", 33),
    ("COc1cc(C)c(C(C)C)cc1S(=O)(=O)N(C)c1ccccn1", "microRNA 122", 89),
    ("COc1cc(C)c(C(C)C)cc1S(=O)(=O)Nc1ccccn1", "microRNA 122", 88),
]

GET /value?item= COc1cc(C)c(C(C)C)cc1S(=O)(=O)N(C)c1cc(C)ccc1C &field=Activity returns 77

---

# Tested on: Renilla
# Procedure summary: Inhibition of recombinant renilla luciferase at 10 uM using coelenterazine as substrate incubated for 10 mins by luminescence based microplate reader analysis relative to control; values are per cent of control
Entries and their residual activity values follow.
Phrase the answer as number then unit, nothing more needed.

// worked examples, residual activity included
# Cpd smiles, Measurement target, residual activity
data = [
    ("COc1cc(C)c(C(C)C)cc1S(=O)(=O)Nc1ncccc1C", "Renilla", "17%"),
    ("C#CCOc1cc(C)c(C(C)C)cc1S(=O)(=O)n1cnc(C)c1", "Renilla", "97%"),
    ("COc1cc(C)c(C(C)C)cc1S(=O)(=O)N(C)c1ccccn1", "Renilla", "100%"),
    ("COc1cc(C)c(C(C)C)cc1S(=O)(=O)n1ccc2ccccc21", "Renilla", "94%"),
    ("COc1cc(C)c(C(C)C)cc1S(=O)(=O)n1cnc(C)c1", "Renilla", "80%"),
    ("COc1cc(C)c(C(C)C)cc1S(=O)(=O)N(C)c1ccc(C)cc1", "Renilla", "100%"),
]

Kindly review the next compound as well.
The measured residual activity associated with COc1cc(C)c(C(C)C)cc1S(=O)(=O)N(C)c1cccc(C)n1 reads 100%
